Data origin, for the record: patent US20260308158A1

Target: 7-deaza-guanosine WT RNA
Experiment: Fluorescent binding affinity, 7-deaza-guanosine WT RNA
Conditions: n=3, read-out: Kd (affinity for the modified RNA)
Procedure: Fluorescent Binding Affinity Measurements. […] Fluorescence intensity was measured using a Tecan Plate Reader (Gain: 100, Integration time: 40 μs). […] The change in fluorescence of the small molecule was calculated by its comparison to samples lacking RNA. Binding affinity was calculated using Equation 1, as previously described:^30 […]
quantity: pKd
// returns pKd (minus log10 of molar concentration), number only

### Prompt Give its pKd value. Item: `COc1cc(N)ncc1CCCN(C)CCCn1cnc2c3ccccc3n(C)c2c1=O`
### Response 5.47

---

Experiment: Plasma and brain exposure in mice
Assay type: in vivo, C57BL/6J mouse
Conditions: mouse, brain, po, 100 mg/kg p.o., C57BL/6J mice, read-out: brain concentration
quantity: concentration at 48 h (nM)
Answer with a number only, understood to be in nM.

### Prompt Record request: concentration at 48 h value, item COc1cc(N)ncc1CCCN(C)CCCn1cnc2c3ccccc3n(C)c2c1=O [Compound 2]
### Response 2900

---

Test system: DDPAC MAPT exon 10 mini-gene luciferase reporter
Assay: Luciferase reporter assay of exon 10 splicing, DDPAC mini-gene in HeLa cells
Assay type: cell-based
Conditions: Homo sapiens; HeLa, DDPAC mini-gene, 48 h; read-out: IC50, inhibition of luciferase activity (exon 10 inclusion)
quantity: IC50 (nM)
Record the value in nM, omitting the unit from your answer.

### Prompt What IC50 value was documented for this compound, `COc1cc(N)ncc1CCCN(C)CCCn1cnc2c3ccccc3n(C)c2c1=O` ?
### Response 600

---

Assay: Plasma and brain exposure in mice
Type: in vivo, C57BL/6J mouse
Conditions: mouse, plasma, po, 100 mg/kg p.o., C57BL/6J mice, read-out: plasma concentration
quantity: concentration at 48 h (nM)
The response must be a number in nM with no trailing unit.

### Prompt Given `COc1cc(N)ncc1CCCN(C)CCCn1cnc2c3ccccc3n(C)c2c1=O` , state its recorded concentration at 48 h.
### Response 500

---

Assay: Cell viability (WST-1), untransfected HeLa cells
Format: cell-based
Details: human, hela cells, 12.5 μM, WST-1, read-out: reduction of viability of HeLa cells
quantity: cytotoxicity at 48 h, 12.5 µM

### Prompt Item COc1cc(N)ncc1CCCN(C)CCCn1cnc2c3ccccc3n(C)c2c1=O [Compound 2] has what recorded cytotoxicity at 48 h, 12.5 µM?
### Response 17%

---

Assay: Plasma protein binding by equilibrium dialysis
Format: in vitro ADME
Conditions: 37° C., 6 h (2 at 5 μM), read-out: free fraction in plasma
quantity: fraction unbound at 6 h

### Prompt Any idea what fraction unbound at 6 h was measured for NC(=O)N1c2ccccc2C=Cc2ccccc21 [Carbamazepine, reference compound] ?
### Response 0.377

### Prompt Query: fraction unbound at 6 h; subject: COc1cc(N)ncc1CCCN(C)CCCn1cnc2c3ccccc3n(C)c2c1=O [Compound 2]
### Response 0.089
